Test system: acetylation state of α-Tubulin and histones (H3K9 and H4K12)
Test Protocol: Acetylation level assay (Western blot) in human iPSC-derived neural progenitor cells
Type: cell-based
Condition Parameters: ACY1215 5 μM, other compounds 10 μM; 6 h at 37° C.
Result Type: Histone acetylation on H4K12

molecule="CN(Cc1ccc(C(=O)NO)cc1F)CC12CC3CC(CC(C3)C1)C2 [Example 1]" target_system="acetylation state of α-Tubulin and histones (H3K9 and H4K12)" result_type="Histone acetylation on H4K12" value_observed="remained unaltered"
molecule="CC(=O)Nc1ccc(C(=O)Nc2ccccc2N)cc1 [CI-994, tacedinaline]" target_system="acetylation state of α-Tubulin and histones (H3K9 and H4K12)" result_type="Histone acetylation on H4K12" value_observed="significantly increased"
molecule="O=C(CCCCCCNC(=O)c1cnc(N(c2ccccc2)c2ccccc2)nc1)NO [ACY-1215, ricolinostat]" target_system="acetylation state of α-Tubulin and histones (H3K9 and H4K12)" result_type="Histone acetylation on H4K12" value_observed="significantly increased"
molecule="CN1CCc2c(c3ccccc3n2Cc2ccc(C(=O)NO)cc2)C1 [Tubastatin A]" target_system="acetylation state of α-Tubulin and histones (H3K9 and H4K12)" result_type="Histone acetylation on H4K12" value_observed="remained unaltered"

Values from patent US11890356B2
